Sourced from the RNAGym collection of RNA variant scans (doi:10.1126/science.aae0568)

I'd be grateful if you could share measured yeast fitness for these entries.
B1: tRNA (parent)
chain: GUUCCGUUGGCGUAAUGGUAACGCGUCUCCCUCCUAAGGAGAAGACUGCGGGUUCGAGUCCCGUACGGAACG

# Variants of: B1
# EXPERIMENT_SUMMARY: yeast fitness relative to wild type (ratio to wild type); higher = fitter; tRNA-Arg(CCU), competitive growth, 37 C, YPD
This sample holds only a part of the variants without activity.

QUERY: Name the recorded yeast fitness for C4U A14G A21G C49U .
RESULT: 0.677

QUERY: Using the record for C27G U28A C61U A65U A70U , report its yeast fitness.
RESULT: ≤ 0.5

QUERY: Which yeast fitness value belongs to C30A A42U C55G ?
RESULT: ≤ 0.5

QUERY: State the recorded yeast fitness for this entry: U2A U32C U35C A36G
RESULT: ≤ 0.5

QUERY: What does the record list as yeast fitness for C22U C24U G51C ?
RESULT: ≤ 0.5

QUERY: Form field: reported yeast fitness of C4G G39C A45G A57C A65U C66U
RESULT: 0.796

QUERY: So what's the measured yeast fitness for this one? C4U A40U G58C
RESULT: 0.734

QUERY: Record request: yeast fitness value, item C24U C49U U59G G67U
RESULT: ≤ 0.5

QUERY: Fill in the blank: the reported yeast fitness of U2G C4U C61A C62U A65U A69C is ____.
RESULT: 0.519

QUERY: // yeast fitness lookup, key: C11G A21G C31G
RESULT: ≤ 0.5

QUERY: So what's the measured yeast fitness for this one? C4A C5G C24U G25A A57U
RESULT: ≤ 0.5

QUERY: State the recorded yeast fitness for this entry: C11G C60G A65C
RESULT: ≤ 0.5

QUERY: Reported yeast fitness, variant C4A C22U C33G A45C U47C U53G A69C : ____
RESULT: ≤ 0.5

QUERY: Would you mind telling me what yeast fitness value was observed for C4G G10C C34U C46G ?
RESULT: ≤ 0.5

QUERY: Which yeast fitness reading was recorded for the variant C29G C34A ?
RESULT: 0.585

QUERY: GET /values?readout=yeast fitness&item= C11G C24U U35A
RESULT: 0.622

QUERY: # lookup: yeast fitness of C24G A37G U47C U59A G67A
RESULT: ≤ 0.5

QUERY: Sample U3G C4U — what was its yeast fitness?
RESULT: 0.915

QUERY: Query: yeast fitness; subject: G12C A14U C29U
RESULT: ≤ 0.5

QUERY: Look at this variant and give its reported yeast fitness. U8C G50C
RESULT: 0.663

QUERY: Report yeast fitness for G6A C24U C31A A43C U53C please.
RESULT: ≤ 0.5

QUERY: Entry under review: A45G G50A U54C . Reported yeast fitness?
RESULT: ≤ 0.5
